test system: VDR:RXRa (NR concentration 270 nM, RXRa partner concentration 90 nM); experiment: PBM binding z-score (relative to random genomic background probes); higher = stronger binding; sequences stand for … in GC…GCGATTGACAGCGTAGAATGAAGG
Threshold check on PBM binding z-score: at or above 1 gives criterion met, strictly below gives criterion not met.

>>> df
                           biosequence     classification
 0  CCGACTGGGGCAAAGGTTACCGTACTCAGTACGA      criterion met
 1  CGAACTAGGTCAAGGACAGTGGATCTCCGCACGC      criterion met
 2  CTCGAAAGGTCGTGCTCAGGCGAGTATACCAAAC      criterion met
 3  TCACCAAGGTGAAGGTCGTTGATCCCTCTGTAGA      criterion met
 4  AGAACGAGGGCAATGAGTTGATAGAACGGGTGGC      criterion met
 5  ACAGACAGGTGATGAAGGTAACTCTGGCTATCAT  criterion not met
 6  CCGACTGGGGCATATGGTTACCATAAGCCAGCCC  criterion not met
 7  CCTCGGAGGACAACAGGAGGTCCGAGCTGCCAGA  criterion not met
 8  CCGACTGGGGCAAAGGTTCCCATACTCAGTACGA  criterion not met
 9  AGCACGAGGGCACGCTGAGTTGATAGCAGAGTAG      criterion met
10  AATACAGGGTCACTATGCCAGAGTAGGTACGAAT      criterion met
11  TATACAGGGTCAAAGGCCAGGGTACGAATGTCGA      criterion met
12  TCTCTGAGGACACGAAGGTCAGAGCTTTCCAGAG      criterion met
13  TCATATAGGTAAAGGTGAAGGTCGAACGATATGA      criterion met
14  AATACAGGGTCACTCGGCCAGAGTAGGTACGAAT      criterion met
15  TAGCCTAGGTCATTCAGGGGCCAGTATTGAAAGC      criterion met
16  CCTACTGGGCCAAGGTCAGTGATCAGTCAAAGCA  criterion not met
17  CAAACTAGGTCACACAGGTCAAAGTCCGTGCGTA      criterion met
18  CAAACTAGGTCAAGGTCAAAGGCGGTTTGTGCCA      criterion met
19  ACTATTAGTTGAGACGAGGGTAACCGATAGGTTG  criterion not met
20  CAAACTAGGTCACGAAAGGTCAAAGGCGAATGAC      criterion met
21  CCTATTAGTTGACCATAAGGGTAACCGAAGCTCG  criterion not met
22  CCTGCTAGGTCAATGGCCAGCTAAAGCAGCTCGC  criterion not met
23  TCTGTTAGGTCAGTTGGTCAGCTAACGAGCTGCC  criterion not met
24  TAGCCTAGGTCATGGGACAGTATACCACGCGAAC      criterion met
25  AGAATGTGGTTAAGATCAGGGAAACAGAATACAT  criterion not met
26  GCTTGAAGATCAAGGTTAAGAAAGACTAAGCTAA  criterion not met
27  CCTTACGGGTCACTCCACGTTATAGCATCGGAGT      criterion met
28  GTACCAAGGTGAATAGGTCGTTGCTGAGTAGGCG  criterion not met
29  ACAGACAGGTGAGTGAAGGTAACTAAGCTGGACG  criterion not met
30  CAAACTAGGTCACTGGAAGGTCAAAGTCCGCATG      criterion met
31  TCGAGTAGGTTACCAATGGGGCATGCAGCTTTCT  criterion not met
32  AGAACGAGGGAACGCTGAGTTGATAGCAGAGTAG  criterion not met
33  CAGCCTATGTCAGGGCCAGTATAGGAGGAACGTT  criterion not met
34  TCTAGCAGGCCAGACGGTCACTCAAGAGGTACGG  criterion not met
35  TTACCAAGGTGAGCTGATGTCGTTGATCCAACTC  criterion not met
36  CCTACTGGGCCATCAGGTCAATGATATCAACGTT      criterion met
37  ACTAGCAGGCCAAGGGTCATTCAAGATTAGTCCG      criterion met
38  CCTGTTAGTTGACCATAAGGGCAACCGAAGCTCG  criterion not met
39  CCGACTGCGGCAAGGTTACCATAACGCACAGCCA  criterion not met
40  ATATATAGGTTAAGGGTCATTCAGGTTGGTTCGC      criterion met
41  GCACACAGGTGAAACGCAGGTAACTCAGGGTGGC  criterion not met
42  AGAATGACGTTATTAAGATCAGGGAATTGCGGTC  criterion not met
